# TESTED ON: RSV F on RSV subtype A virus (RSV-A2) (Respiratory Syncytial Virus, subtype A, …, UniProt P03420 26-574)
# ASSAY: cell-based or functional assay
ATTRIBUTE MEASURED: Neutralization IC50 (RSV subtype A) (µg/mL)
Could you give me the number in µg/mL? Just the number is fine.

Endpoint output: Neutralization IC50 (RSV subtype A) of ADI-41816 (antibody, V domains shown) VH: QVQLVQSGAEVKKPGASVKVSCEASGYTFTDSYIHWVRQAPGQGLEWMGWINPNSGGTNYAQKFQGRVTMTRDTSTSTAFIELSRLRSDDTAVYYSARGVRQQWLVNTGDPDYYFDFWGQGTLVTVSS VL: SYVLTQPPSVSVSPGQTASITCSGDKLGDKYSCWYQQKPGQSPVLVIYQDYKRPSGIPERFSGSNSGNTATLTISGTQAMDEADYYCQAWDRNAGVFGTGTKLTVL . Value?
0.91
